test system: Plasmodium falciparum; assay: Inhibition of HDAC in Plasmodium falciparum 3D7 by fluorescent activity assay; type: organism-based; details: Plasmodium falciparum, 3D7
pIC50: −log10 of the molar value.
Record fulfilled whenever pIC50 is at 6 or higher; record not fulfilled when lower.

For this molecule, is measured pIC50 6 or higher? `O=C(CCCCCCC(=O)Nc1nc(-c2ccccc2)cs1)NO`
fulfilled

Cool, now `O=C(CCCCCC(=O)Nc1cccc2cccnc12)NS`
not fulfilled

Thanks! And `N[C@@H](Cc1ccccc1)C(=O)Nc1ccccc1-c1ccc(NC(=O)CCCCCCC(=O)NO)cc1` ?
fulfilled

Same thing, different molecule: `O=C(CCCCCCC(=O)Nc1ccc(-c2ccccc2)cc1)NO`
fulfilled
